I'd be grateful if you could share measured IC50 for these entries.
Target: human recombinant HPK1 (Homo sapiens, UniProt Q92918)
Sequence (Q92918 whole entry): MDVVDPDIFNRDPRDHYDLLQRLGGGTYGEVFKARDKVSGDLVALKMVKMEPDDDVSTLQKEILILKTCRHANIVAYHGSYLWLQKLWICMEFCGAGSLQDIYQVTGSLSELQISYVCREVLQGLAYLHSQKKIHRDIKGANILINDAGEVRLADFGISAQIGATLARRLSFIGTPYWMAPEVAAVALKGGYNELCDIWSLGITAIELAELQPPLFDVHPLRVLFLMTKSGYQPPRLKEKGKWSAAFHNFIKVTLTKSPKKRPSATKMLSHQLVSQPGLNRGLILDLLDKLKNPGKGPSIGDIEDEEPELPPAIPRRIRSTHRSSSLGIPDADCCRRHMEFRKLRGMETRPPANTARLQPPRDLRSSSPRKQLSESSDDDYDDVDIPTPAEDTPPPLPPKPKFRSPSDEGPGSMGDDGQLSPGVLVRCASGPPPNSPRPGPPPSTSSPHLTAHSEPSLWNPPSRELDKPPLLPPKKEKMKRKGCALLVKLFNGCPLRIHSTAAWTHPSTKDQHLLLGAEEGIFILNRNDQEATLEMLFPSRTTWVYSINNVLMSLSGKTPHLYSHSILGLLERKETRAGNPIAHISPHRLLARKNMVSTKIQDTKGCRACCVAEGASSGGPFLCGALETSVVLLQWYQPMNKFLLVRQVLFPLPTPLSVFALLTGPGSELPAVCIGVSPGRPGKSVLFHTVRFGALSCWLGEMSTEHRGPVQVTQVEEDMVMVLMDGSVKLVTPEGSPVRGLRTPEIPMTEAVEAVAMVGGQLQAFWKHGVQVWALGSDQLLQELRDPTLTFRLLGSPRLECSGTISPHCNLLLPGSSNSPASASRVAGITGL
Assay: Inhibitory activity against human recombinant HPK1 (TR-FRET)
Conditions: ULight-p70S6K peptide, ATP at Km, room temperature, 1 hour, 0.32 to 1000 nM compound
Where a name gives a salt, the structure may show the parent alone.

Example entries begin here.
MOLECULE: COc1cccc(F)c1-c1nccc(Nc2cc(N3CCN(C)CC3)c(-c3cnn(C4CCOCC4)c3)cn2)n1
IC50: 10 to 50 nM
--
MOLECULE: COc1cccc(F)c1-c1nc(Nc2cc(N3CCC[C@H](O)C3)c(C(=O)NC3CC(O)C3)cn2)ccc1[N+](=O)[O-] (stereo partly shown)
IC50: ≤ 10 nM
--
MOLECULE: COc1cccc(F)c1-c1nccc(Nc2cc(N3CCC[C@H](O)C3)c(-c3ccc(C(=O)N4CCN(C)CC4)nc3)cn2)n1
IC50: ≤ 10 nM

Next molecule, IC50 to be filled in.
Would you mind telling me what IC50 value was observed for N[C@H]1CCCN(c2cc(Nc3ccnc(-c4cc5nccnc5cc4F)n3)ncc2-c2ccc(C3CCOCC3)nc2)C1 [Example 99, hydrochloride] ?
10 to 50 nM

###

Target: human recombinant HPK1 (Homo sapiens)
Assay: Inhibitory activity against human recombinant HPK1 (TR-FRET)
Conditions: ULight-p70S6K peptide, ATP at Km, room temperature, 1 hour, 0.32 to 1000 nM compound
Structures can show the parent of a compound that is named as a salt.
Kindly supply the reported IC50 values for the records listed here.

// each listed molecule needs a value for IC50
1. COc1cccc(F)c1-c1nccc(Nc2cc(N3CCC[C@H](C(N)=O)C3)c(-c3cnn(C4CCOCC4)c3)cn2)n1
2. COc1cccc(F)c1-c1nccc(Nc2cc(N3CCCC(CC(F)(F)F)C3)c(-c3cnn(C4CCOCC4)c3)cn2)n1 (stereo not drawn)
3. COc1cccc(F)c1-c1nccc(Nc2cc(N3CCC[C@H](N)C3)c(-c3ccc4c(c3)COC(=O)N4)cn2)n1 [Example 258, hydrochloride]
4. COc1cccc(F)c1-c1nccc(Nc2cc(N3CCC[C@@H](C(N)=O)C3)c(-c3cnn(C4CCOCC4)c3)cn2)n1

1. > 100 nM
2. 10 to 50 nM
3. ≤ 10 nM
4. 50 to 100 nM

Count: 2. Required value per item: IC50.
1. COc1cc(C(=O)N2CC(F)(F)C2)cc(F)c1-c1nccc(Nc2cc(N3CCC[C@H](O)C3)c(-c3cnn(C(F)F)c3)cn2)n1
2. COc1cccc(F)c1-c1nc(Nc2cc(N3CCC[C@H](O)C3)c(-c3cnn(C4CCOCC4)c3)cn2)ccc1C(=O)N(C)C

1. ≤ 10 nM
2. 10 to 50 nM

###

Molecular target: human recombinant HPK1 (Homo sapiens)
Assay: Inhibitory activity against human recombinant HPK1 (TR-FRET)
Settings: ULight-p70S6K peptide, ATP at Km, room temperature, 1 hour, 0.32 to 1000 nM compound
pIC50: −log10 of the molar value. Counter-ions that a name gives are not always drawn.
Kindly state pIC50 for each of the entries shown.

Solved entries:
COMPOUND: COc1cccc(F)c1-c1nccc(Nc2cc(N3CCC[C@H](N)C3)c(C#Cc3cnn(CC(F)F)c3)cn2)n1 [Example 165, hydrochloride]
pIC50: ≥ 8.00
//
COMPOUND: COc1cccc(F)c1-c1nccc(Nc2cc(N3CCC[C@H](O)C3)c(-c3ccc(CN4CCC(O)C4)nc3)cn2)n1 (stereo partly drawn) [Example 43]
pIC50: ≥ 8.00
//
COMPOUND: COc1cccc(F)c1-c1nccc(Nc2cc(N3CCC[C@H](N)C3)c(-c3cnn(CCO)c3)cn2)n1 [Example 133, hydrochloride]
pIC50: ≥ 8.00

List pIC50 for every entry below, keeping the order given.
1. COc1cccc(F)c1-c1nccc(Nc2cc(N3CCC[C@H](O)C3)c(-c3ccc4nccn4c3)cn2)n1 [Example 61]
2. COc1cccc(F)c1-c1nccc(Nc2cc(N3CC[C@H](F)[C@H](N)C3)c(-c3cnn(C(F)F)c3)cn2)n1 [Example 207, hydrochloride]
3. COc1cc(F)cc(F)c1-c1nc(Nc2cc(N3CCC[C@H](O)C3)c(C#CC3CCOCC3)cn2)ccc1[N+](=O)[O-] [Example 225]

["7.30 to 8.00", "≥ 8.00", "≥ 8.00"]
